Cited source for all entries: patent US20240424113A1

Reported pKd by item:
- MEASURED_TARGET: Hsp90 Nuclear Binding Domain (NBD) (Candida albicans (strain SC5314 / ATCC MYA-2876) (Yeast))
- Sequence (P46598 1-218 limits assumed): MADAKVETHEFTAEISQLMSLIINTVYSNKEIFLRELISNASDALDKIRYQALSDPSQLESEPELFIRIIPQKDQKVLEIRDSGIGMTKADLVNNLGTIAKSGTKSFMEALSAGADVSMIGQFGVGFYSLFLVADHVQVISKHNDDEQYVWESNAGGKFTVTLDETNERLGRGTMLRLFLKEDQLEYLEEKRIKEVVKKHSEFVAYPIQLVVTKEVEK
- ASSAY_PROCEDURE: Surface Plasmon Resonance (SPR) binding, C. albicans Hsp90 NBD
- CONDITIONS: biotinylated Hsp90 NBD on streptavidin chip, 25° C., 1:1 binding model
pKd: −log10 of the molar value.

MOLECULE	pKd
Nc1nc2sc(C(=O)NC3CCN(CCCC(O)(Cn4cncn4)c4ccc(F)cc4F)CC3)cc2n(-c2ccc3c(c2)N(c2ccccc2)CCO3)c1=O (stereo not drawn)	9.05
Nc1nc2sc(C(=O)NCCN3CCN(CC(O)(Cn4cncn4)c4ccc(F)cc4F)CC3)cc2n(-c2ccc3c(c2)N(c2ccccc2)CCO3)c1=O (stereo not drawn)	7.52
Nc1nc2sc(C(=O)NC3CCN(CC(O)(Cn4cncn4)c4ccc(F)cc4F)CC3)cc2n(-c2ccc3c(c2)N(c2ccccc2)CCO3)c1=O (stereo not drawn)	7.55
Nc1nc2sc(CN[C@H]3[C@@H]4CN(C[C@](O)(Cn5cncn5)c5ccc(F)cc5F)C[C@@H]43)cc2n(-c2ccc3c(c2)N(c2ccccc2)CCO3)c1=O	6.24
CC1(NC(=O)c2cc3c(nc(N)c(=O)n3-c3ccc4c(c3)N(c3ccccc3)CCO4)s2)CCN(CC(O)(Cn2cncn2)c2ccc(F)cc2F)CC1 (stereo not drawn)	9.52
Nc1nc2sc(CN[C@H]3CCCN(CC(O)(Cn4cncn4)c4ccc(F)cc4F)C3)cc2n(-c2ccc3c(c2)N(c2ccccc2)CCO3)c1=O (stereo partly drawn)	6.06
